- Test protocol: Clearance in pooled human liver microsomes at 1 uM in presence of NADPH by LC-MS/MS method
- Assay type: ADME, microsome
- Settings: read-out: CLH
Measured metric: microsomal CLint at 1 µM (µL/min/mg)
Answer with a number only, understood to be in µL/min/mg.

Item smiles: COc1ccccc1N1CCOc2cc(S(=O)(=O)Nc3nccs3)ccc21
Quantitative result: 68

Per the record, COc1cc(C#N)ccc1N1CCOc2cc(S(=O)(=O)Nc3nccs3)ccc21 has microsomal CLint at 1 µM of 36

----------
- Test protocol: Protein binding in rat plasma at 5 uM by ultracentrifugation and LC-MS/MS method
- Type: ADME, cell-free
- Settings: read-out: PPB (converted)
Measured metric: fraction unbound at 5 µM
Quick one: just the number, no unit, thanks!

Per the record, N#Cc1cc(C(F)(F)F)ccc1N1CCOc2cc(S(=O)(=O)Nc3nccs3)c(F)cc21 has fraction unbound at 5 µM of 0.015
